test: AUC (0 to 4 hrs) in mouse at 50 mg/kg, po; type: ADME, organism-based; parameters: time < 4 hr, dose 50 mg/kg, route oral; conditions: plasma
readoutType: AUC(0-t) at 4 h (µM·h)
Response body: numeric value in µM·h, unit text excluded.

Some compounds with recorded AUC(0-t) at 4 h:
{"smilesCode": "CC(C)c1c(-c2nnc(NCCCCN)o2)cn2ncnc(Nc3cc(C(=O)NC4CC4)c(F)cc3F)c12", "AUC(0-t) at 4 h, µM·h": 0.2}
{"smilesCode": "CC(C)c1c(-c2nnc(NCCCN(C)C)o2)cn2ncnc(Nc3cc(C(=O)NC4CC4)c(F)cc3F)c12", "AUC(0-t) at 4 h, µM·h": 21.7}

Please examine the following record next.
Look up AUC(0-t) at 4 h: `CC(C)c1c(-c2nnc(OC3CCNCC3)o2)cn2ncnc(Nc3cc(C(=O)NC4CC4)c(F)cc3F)c12`
53.2

---

Recorded Cmax by entry
assay: Cmax in mouse at 50 mg/kg, po; type: ADME, organism-based; design: dose 50 mg/kg, route oral; conditions: in vivo
Provide only the numeric value, understood in µM.

Consider the reported Cmax for these compounds:
{"smilesCode": "CC(C)c1c(-c2nnc(NCCCCN)o2)cn2ncnc(Nc3cc(C(=O)NC4CC4)c(F)cc3F)c12", "Cmax, µM": 0.1}
{"smilesCode": "CC(C)c1c(-c2nnc(OC3CCNCC3)o2)cn2ncnc(Nc3cc(C(=O)NC4CC4)c(F)cc3F)c12", "Cmax, µM": 15}

As a next step, examine the compound that follows.
Query: Cmax; subject: `CC(C)c1c(-c2nnc(NCCCN(C)C)o2)cn2ncnc(Nc3cc(C(=O)NC4CC4)c(F)cc3F)c12`
8

---

assay: Tmax in mouse at 50 mg/kg, po; format: ADME, organism-based; set-up: dose 50 mg/kg, route oral; settings: in vivo
readoutType: Tmax (h)
A number alone suffices; assume h.

Known results for compounds:
{"smilesCode": "CC(C)c1c(-c2nnc(NCCCCN)o2)cn2ncnc(Nc3cc(C(=O)NC4CC4)c(F)cc3F)c12", "Tmax / h": 0.5}
{"smilesCode": "CC(C)c1c(-c2nnc(NCCCN(C)C)o2)cn2ncnc(Nc3cc(C(=O)NC4CC4)c(F)cc3F)c12", "Tmax / h": 1}

Turning to the following compound.
Entry `CC(C)c1c(-c2nnc(OC3CCNCC3)o2)cn2ncnc(Nc3cc(C(=O)NC4CC4)c(F)cc3F)c12` : reported Tmax = ?
4
